Each entry below carries its reported Kd.
Biological target: EGFR-TK (tyrosine kinase domain of EGFR) (Homo sapiens)
Sequence (P00533 696-1022 limits assumed): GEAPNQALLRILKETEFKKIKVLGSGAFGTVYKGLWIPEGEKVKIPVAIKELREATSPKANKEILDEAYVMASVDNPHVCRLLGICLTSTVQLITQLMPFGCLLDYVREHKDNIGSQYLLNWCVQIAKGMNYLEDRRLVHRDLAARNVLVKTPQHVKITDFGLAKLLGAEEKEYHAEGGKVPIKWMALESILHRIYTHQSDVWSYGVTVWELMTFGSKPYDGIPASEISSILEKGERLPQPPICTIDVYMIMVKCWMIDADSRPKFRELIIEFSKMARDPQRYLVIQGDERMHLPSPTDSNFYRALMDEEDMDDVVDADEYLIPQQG
Please state the figure in µM; there is no need to write the unit.

MOLECULE | TARGET_OR_TEST_SYSTEM | Kd (µM)
CCCCCc1cc(O)c(C/C=C(\C)CCC=C(C)C)c(O)c1 [CBG] | EGFR-TK (tyrosine kinase domain of EGFR) (Homo sapiens) | 5.61
CCCCCc1cc(O)c2c(c1)OC(C)(C)c1ccc(C)cc1-2 [CBN] | EGFR-TK (tyrosine kinase domain of EGFR) (Homo sapiens) | 32.1

// next entry
Value sought: Kd, system EGFR-TK (tyrosine kinase domain of EGFR) (Homo sapiens), item C=C(C)[C@@H]1CCC(C)=C[C@H]1c1c(O)cc(CCCCC)cc1O [CBD] . Result: 8.35
